- target or system: Nav1.5 (late current) (Homo sapiens, UniProt Q14524)
- Sequence (Q14524 whole entry): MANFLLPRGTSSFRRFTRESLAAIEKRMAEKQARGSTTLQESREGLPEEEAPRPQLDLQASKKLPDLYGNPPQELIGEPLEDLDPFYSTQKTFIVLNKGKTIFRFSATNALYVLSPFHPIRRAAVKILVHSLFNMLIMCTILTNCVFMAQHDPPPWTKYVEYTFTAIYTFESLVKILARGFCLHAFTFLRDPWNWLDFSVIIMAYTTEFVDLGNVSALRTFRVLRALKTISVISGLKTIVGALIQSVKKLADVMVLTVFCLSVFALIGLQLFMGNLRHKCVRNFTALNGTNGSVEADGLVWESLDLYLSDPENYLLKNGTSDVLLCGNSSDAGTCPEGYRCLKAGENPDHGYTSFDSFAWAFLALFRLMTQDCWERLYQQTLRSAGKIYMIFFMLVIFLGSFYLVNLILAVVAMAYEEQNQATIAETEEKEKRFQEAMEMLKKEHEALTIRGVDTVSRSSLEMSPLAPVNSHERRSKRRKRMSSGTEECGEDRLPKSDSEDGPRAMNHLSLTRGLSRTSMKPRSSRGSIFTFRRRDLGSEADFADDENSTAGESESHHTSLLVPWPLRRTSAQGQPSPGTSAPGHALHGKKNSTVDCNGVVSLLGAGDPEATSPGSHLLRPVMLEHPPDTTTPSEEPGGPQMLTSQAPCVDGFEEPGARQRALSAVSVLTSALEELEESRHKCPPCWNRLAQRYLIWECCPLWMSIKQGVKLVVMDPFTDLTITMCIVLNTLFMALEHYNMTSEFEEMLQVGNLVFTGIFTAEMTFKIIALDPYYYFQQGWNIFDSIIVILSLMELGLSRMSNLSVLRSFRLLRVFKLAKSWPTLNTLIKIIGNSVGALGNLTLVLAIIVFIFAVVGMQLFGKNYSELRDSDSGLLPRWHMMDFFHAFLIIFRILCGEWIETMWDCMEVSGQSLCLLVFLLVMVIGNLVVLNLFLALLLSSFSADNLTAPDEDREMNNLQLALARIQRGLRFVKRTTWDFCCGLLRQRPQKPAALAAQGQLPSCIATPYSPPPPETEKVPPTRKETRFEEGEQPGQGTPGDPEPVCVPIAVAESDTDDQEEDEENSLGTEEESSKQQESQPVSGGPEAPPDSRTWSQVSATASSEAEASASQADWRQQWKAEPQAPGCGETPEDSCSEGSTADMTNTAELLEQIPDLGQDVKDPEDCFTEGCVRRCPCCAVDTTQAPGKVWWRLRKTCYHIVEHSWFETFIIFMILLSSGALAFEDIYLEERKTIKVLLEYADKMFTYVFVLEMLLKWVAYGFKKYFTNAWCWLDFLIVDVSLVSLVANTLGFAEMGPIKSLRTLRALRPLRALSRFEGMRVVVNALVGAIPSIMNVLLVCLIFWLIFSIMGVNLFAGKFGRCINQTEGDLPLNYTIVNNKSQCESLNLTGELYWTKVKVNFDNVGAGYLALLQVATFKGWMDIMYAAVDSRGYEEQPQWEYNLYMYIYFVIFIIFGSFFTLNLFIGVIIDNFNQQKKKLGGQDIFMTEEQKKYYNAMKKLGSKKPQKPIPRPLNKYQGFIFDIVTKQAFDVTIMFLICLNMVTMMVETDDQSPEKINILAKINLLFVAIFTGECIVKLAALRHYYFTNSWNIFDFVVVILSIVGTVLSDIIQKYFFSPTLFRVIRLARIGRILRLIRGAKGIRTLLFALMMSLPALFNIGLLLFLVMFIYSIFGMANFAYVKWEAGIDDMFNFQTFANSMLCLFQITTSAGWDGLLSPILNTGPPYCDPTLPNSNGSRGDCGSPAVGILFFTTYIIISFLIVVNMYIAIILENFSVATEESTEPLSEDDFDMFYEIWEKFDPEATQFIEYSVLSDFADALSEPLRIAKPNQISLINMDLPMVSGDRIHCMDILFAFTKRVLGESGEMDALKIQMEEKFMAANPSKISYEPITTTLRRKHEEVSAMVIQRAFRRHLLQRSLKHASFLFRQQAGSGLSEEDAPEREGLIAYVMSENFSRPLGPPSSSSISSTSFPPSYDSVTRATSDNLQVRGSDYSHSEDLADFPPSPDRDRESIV
- procedure summary: Inhibition of recombinant human Nav1.5 late expressed in human HEK293 cells at 100 uM in presence of ATXII by automated Qpatch clamp assay relative to contro
- Type: ADME, cell-based
- stated conditions: HEK293 cells expressing recombinant human Nav1.5
recorded metric: inhibition at 100 µM

Query: Look up inhibition at 100 µM of COc1ccc2ncc(F)c(C[C@H](O)[C@H]3OC[C@H](NCc4cc5c(nn4)OCCS5)CO3)c2n1 and report it.
Reply: < 25%

###

- Test system: Staphylococcus aureus
- procedure summary: Antibacterial activity against Staphylococcus aureus 3527 by CLSI method
- Format: functional
recorded metric: MIC (mg/L)
Report the value in mg/L with no unit label.

Query: Look up MIC of COc1ccc2ncc(F)c(C[C@H](O)[C@H]3OC[C@H](NCc4cc5c(cn4)OCCC5)CO3)c2n1 and report it.
Reply: 0.5

Query: Look up MIC of COc1ccc2ccc(F)c(C[C@H](O)[C@H]3OC[C@H](NCc4ccc(Cl)c(Cl)c4)CO3)c2n1 and report it.
Reply: 0.25

Query: Look up MIC of COc1ccc2ncc(F)c(C[C@H](O)[C@H]3OC[C@H](NCc4ccc5c(n4)NC(=O)CO5)CO3)c2c1 and report it.
Reply: 0.25

Query: Look up MIC of COc1ccc2ncc(F)c(C(O)C[C@H]3OC[C@H](NCc4cc5c(nn4)OCCS5)CO3)c2c1 (mixture of isomers) and report it.
Reply: 1

Query: Look up MIC of COc1ccc2ncc(F)c(C(O)C[C@H]3OC[C@H](NCc4ccc5c(c4)OCCO5)CO3)c2c1 (mixture of isomers) and report it.
Reply: 0.125

Query: Look up MIC of COc1ccc2ncc(F)c(C[C@H](O)[C@H]3OC[C@H](NCc4cc5c(nn4)OCCO5)CO3)c2n1 and report it.
Reply: 0.25

Query: Look up MIC of COc1ccc2ncc(F)c(C(O)C[C@H]3OC[C@H](NCc4cc5c(cn4)OCCO5)CO3)c2n1 (mixture of isomers) and report it.
Reply: 1

Query: Look up MIC of COc1ccc2ncc(F)c(C[C@H](O)[C@H]3OC[C@H](NCc4cc5c(nn4)OCCS5)CO3)c2n1 and report it.
Reply: 0.25

Query: Look up MIC of COc1ccc2ncc(F)c(C[C@H](O)[C@H]3OC[C@H](NCc4ccc(C)cc4)CO3)c2c1 and report it.
Reply: 0.5

Query: Look up MIC of COc1ccc2ncc(F)c(C(O)C[C@H]3OC[C@H](NCc4ccc(C)cc4)CO3)c2c1 (mixture of isomers) and report it.
Reply: 0.5

Query: Look up MIC of COc1ccc2ncc(F)c(C[C@H](O)[C@H]3OC[C@H](NCc4cc5c(nn4)OCCO5)CO3)c2c1 and report it.
Reply: 2

Query: Look up MIC of COc1ccc2ncc(F)c(C[C@H](O)[C@H]3OC[C@H](NCc4ccc5c(c4)OCCO5)CO3)c2n1 and report it.
Reply: 0.125

Query: Look up MIC of COc1ccc2ncc(F)c(C[C@H](O)[C@H]3OC[C@H](NCc4cc5c(cn4)OCO5)CO3)c2n1 and report it.
Reply: 1

###

- procedure summary: Oral bioavailability in ICR (CD-1) mouse at 50 mg/kg measured up to 1440 mins by LC-MS/MS analysis
- Assay type: ADME, organism-based
- stated conditions: in vivo
recorded metric: bioavailability (%)
Report the value in % with no unit label.

Query: Look up bioavailability of COc1ccc2ncc(F)c(C[C@H](O)[C@H]3OC[C@H](NCc4cc5c(nn4)OCCS5)CO3)c2n1 and report it.
Reply: 49

###

- procedure summary: AUClast in ICR (CD-1) mouse at 10 mg/kg, iv measured up to 1440 mins by LC-MS/MS analysis
- Type: ADME, organism-based
- Design: route intravenous, dose 10 mg/kg, time <=1440
- stated conditions: in vivo
recorded metric: AUC(0-t) at 24 h
The reply must contain the numeric value and, after it, the unit.

Query: Look up AUC(0-t) at 24 h of COc1ccc2ncc(F)c(C[C@H](O)[C@H]3OC[C@H](NCc4cc5c(nn4)OCCS5)CO3)c2n1 and report it.
Reply: 2400 ng·h/mL

###

- target or system: UniProtKB Q14524
- procedure summary: Inhibition of recombinant human Nav1.5 expressed in human HEK293 cells at 100 uM measured at peak current by automated Qpatch clamp assay relative to control
- Type: ADME, cell-based
- stated conditions: HEK293 cells expressing recombinant human Nav1.5
recorded metric: inhibition at 100 µM

Query: Look up inhibition at 100 µM of COc1ccc2ncc(F)c(C[C@H](O)[C@H]3OC[C@H](NCc4cc5c(nn4)OCCS5)CO3)c2n1 and report it.
Reply: < 25%

###

- target or system: DNA gyrase (Staphylococcus aureus, UniProt P0A0K8+P20831)
- procedure summary: Inhibition of Staphylococcus aureus Gyrase supercoiling activity assessed as reduction in supercoiling pBR322 DNA by measuring relaxation by bromophenol blue staining based TAE gel method
# pIC50 listing for each entry below
Lab note: report pIC50 as minus log10 of the concentration in molar units, number only.

// worked examples, pIC50 included
COc1ccc2ncc(F)c(C[C@H](O)[C@H]3OC[C@H](NCc4cc5c(cn4)OCCC5)CO3)c2n1 :: 6.85
COc1ccc2ncc(F)c(C(O)C[C@H]3OC[C@H](NCc4ccc5c(c4)OCCO5)CO3)c2c1 (mixture of isomers) :: 7.19

Query: Look up pIC50 of COc1ccc2ncc(F)c(C[C@H](O)[C@H]3OC[C@H](NCc4ccc(Cl)c(Cl)c4)CO3)c2n1 and report it.
Reply: 6.80

Query: Look up pIC50 of COc1ccc2ccc(F)c(C[C@H](O)[C@H]3OC[C@H](NCc4ccc(Cl)c(Cl)c4)CO3)c2n1 and report it.
Reply: 7.37

Query: Look up pIC50 of COc1ccc2ncc(F)c(C(O)C[C@H]3OC[C@H](NCc4ccc5c(n4)NC(=O)CS5)CO3)c2n1 (mixture of isomers) and report it.
Reply: 7.27

###

- procedure summary: Plasma protein binding in mouse
- Type: ADME, cell-free
- stated conditions: read-out: PPB (converted)
recorded metric: fraction unbound

Query: Look up fraction unbound of COc1ccc2ncc(F)c(C(O)C[C@H]3OC[C@H](NCc4ccc5c(c4)OCCO5)CO3)c2c1 (mixture of isomers) and report it.
Reply: 0.11

###

- procedure summary: Thermodynamic solubility of the compound at pH 7.4
- Format: physicochemical
- stated conditions: buffer, read-out: Therm_solubility
recorded metric: solubility thermodynamic (µM)
Report the value in µM with no unit label.

Query: Look up solubility thermodynamic of COc1ccc2ncc(F)c(C(O)C[C@H]3OC[C@H](NCc4ccc5c(c4)OCCO5)CO3)c2c1 (mixture of isomers) and report it.
Reply: 186

###

- target or system: DNA gyrase (Staphylococcus aureus, UniProt P0A0K8+P20831, D83N)
- procedure summary: Inhibition of Staphylococcus aureus DNA Gyrase D83N mutant assessed as reduction in supercoiling pBR322 DNA by measuring relaxation by bromophenol blue staining based TAE gel method
# pIC50 listing for each entry below
Lab note: report pIC50 as minus log10 of the concentration in molar units, number only.

// worked examples, pIC50 included
COc1ccc2ncc(F)c(C[C@H](O)[C@H]3OC[C@H](NCc4ccc5c(n4)NC(=O)CO5)CO3)c2c1 :: 5.72
COc1ccc2ccc(F)c(C[C@H](O)[C@H]3OC[C@H](NCc4cc5c(nn4)OCCS5)CO3)c2n1 :: 4.92
COc1ccc2ncc(F)c(C[C@H](O)[C@H]3OC[C@H](NCc4cc5c(cn4)OCO5)CO3)c2n1 :: 4.14
COc1ccc2ccc(F)c(C[C@H](O)[C@H]3OC[C@H](NCc4ccc5c(n4)NC(=O)CO5)CO3)c2n1 :: 4.16
COc1ccc2ncc(F)c(C[C@H](O)[C@H]3OC[C@H](NCc4cc5c(nn4)OCCO5)CO3)c2n1 :: 4.33
COc1ccc2ncc(F)c(C[C@H](O)[C@H]3OC[C@H](NCc4cc5c(cn4)OCCC5)CO3)c2n1 :: 4.89
COc1ccc2ncc(F)c(C[C@H](O)[C@H]3OC[C@H](NCc4cnc5c(n4)OCCO5)CO3)c2n1 :: 4.54
COc1ccc2ncc(F)c(C[C@H](O)[C@H]3OC[C@H](NCc4ccc5c(c4)OCCO5)CO3)c2n1 :: 5.57
COc1ccc2ncc(F)c(C[C@H](O)[C@H]3OC[C@H](NCc4ccc5c(c4)OCCO5)CO3)c2c1 :: 5.66
COc1ccc2ncc(F)c(C[C@H](O)[C@H]3OC[C@H](NCc4cc5c(nn4)OCCS5)CO3)c2c1 :: 4.72

Query: Look up pIC50 of COc1ccc2ncc(F)c(C[C@H](O)[C@H]3OC[C@H](NCc4cc5c(nn4)OCCS5)CO3)c2n1 and report it.
Reply: 4.82

Query: Look up pIC50 of COc1ccc2ncc(F)c(C[C@H](O)[C@H]3OC[C@H](NCc4cc5c(nn4)OCCO5)CO3)c2c1 and report it.
Reply: 4.29

Query: Look up pIC50 of COc1ccc2ncc(F)c(C[C@H](O)[C@H]3OC[C@H](NCc4cc5c(cn4)OCCO5)CO3)c2n1 and report it.
Reply: 4.89

Query: Look up pIC50 of COc1ccc2ncc(F)c(C[C@H](O)[C@H]3OC[C@H](NCc4ccc(C)cc4)CO3)c2n1 and report it.
Reply: 5.19

Query: Look up pIC50 of COc1ccc2ncc(F)c(C[C@H](O)[C@H]3OC[C@H](NCc4cc5c(cn4)OCS5)CO3)c2n1 and report it.
Reply: 5.23

Query: Look up pIC50 of COc1ccc2ncc(F)c(C[C@H](O)[C@H]3OC[C@H](NCc4ccc(Cl)c(Cl)c4)CO3)c2n1 and report it.
Reply: 5.26
